Organism: Rattus norvegicus
Assay: Open TG-GATES - Regimen: Daily Repeat
Format: toxicity, organism-based, Sprague-Dawley
Set-up: regimen Daily Repeat, gender Male, age 6 weeks
Conditions: in vivo, po, 100 mg/kg, […], tissue Blood, route gavage, dose level Low, time 14 day
Under this convention, 1 denotes Neu strictly below 20% and 0 denotes Neu at or above 20%.

>  <Molecule>
COc1ccc2[nH]c([S+]([O-])Cc3ncc(C)c(OC)c3C)nc2c1 (stereo not given)

>  <Class Assignment>
1

$$$$
>  <Molecule>
COC1=CC(=O)C[C@@H](C)[C@]12Oc1c(Cl)c(OC)cc(OC)c1C2=O

>  <Class Assignment>
1

$$$$
>  <Molecule>
NC(N)=Nc1nc(CSCCC(N)=NS(N)(=O)=O)cs1

>  <Class Assignment>
1

$$$$
>  <Molecule>
CCOc1ccc(NC(=O)CC(C)O)cc1 (stereo not given)

>  <Class Assignment>
0

$$$$
>  <Molecule>
CCOC(=O)CCC(=O)O[C@H]1[C@H](O[C@@H]2[C@@H](C)[C@H](O[C@H]3C[C@@](C)(OC)[C@@H](O)[C@H](C)O3)[C@@H](C)C(=O)O[C@H](CC)[C@@](C)(O)[C@H](O)[C@@H](C)C(=O)[C@H](C)C[C@@]2(C)O)O[C@H](C)C[C@@H]1N(C)C [ERYTHROMYCIN ETHYLSUCCINATE]

>  <Class Assignment>
1

$$$$

FYI, the data here is from ChEMBL document CHEMBL3885861.
